Could you please report measured melting point for the items listed next?

q: Tell me measured melting point for `Cc1cn2nc(-c3cc(=O)n4cc(N5CCC(C)(N)CC5)ccc4n3)cc2c(C)n1` please.
a: 200 to 203 °C

q: Tell me measured melting point for `Cc1nc2ccc(-c3cc(=O)n4cc(N5CCN6CCC[C@H]6C5)ccc4n3)cc2s1` please.
a: 250 to 260 °C

q: Tell me measured melting point for `O=c1cc(-c2cnc3[nH]ccc3c2)nc2ccc(N3CCNCC3)cn12` please.
a: 252 to 255 °C

q: Tell me measured melting point for `COc1ccc(-c2cc(=O)n3cc(C4=CCNCC4)ccc3n2)cc1F` please.
a: 182 to 184 °C

q: Tell me measured melting point for `Cc1csc(-c2cc(=O)n3cc(N4CCN[C@@H](C)C4)ccc3n2)n1` please.
a: 225 to 230 °C

q: Tell me measured melting point for `O=c1cc(-c2ccc(F)c(C(F)(F)F)c2)nc2ccc(N3CCNCC3)cn12` please.
a: 214 to 217 °C

q: Tell me measured melting point for `Cc1cn2nc(-c3cc(=O)n4cc(N5CCNC(C)(C)C5)ccc4n3)cc2c(C)n1` please.
a: 195 to 197 °C

q: Tell me measured melting point for `Cc1cn2nc(-c3cc(=O)n4cc(C5CCNCC5)cc(C)c4n3)cc2c(C)n1` please.
a: 247 to 255 °C
